# methodNotes: folding enthalpy; higher = less favourable; fluorescence melt of hairpins on a sequencing array, two-state fit
# conditionParameters: sodium 0.088 M
Mark 1.0 for reported folding enthalpy of -100 kJ/mol or greater; mark 0.0 for anything smaller.

Example entries and their recorded answers appear below.
> print(dat)
                            sequencecode  assignedcategory
1      GATCTAGTAGTAGATC ((((((....))))))               0.0
2  GCCCACGAAAGTGAGGGC ((((((....)))..)))               0.0
3  GAGTGCGAAAGCAGACTC ((((((....)))..)))               1.0
4  GGTTCAGGAAACTGAATC (.(((((....))))).)               0.0
5  GTCCTGGGAAACCGGGAC ((((.((....)).))))               0.0

Q) Is folding enthalpy at least -100 kJ/mol? Consider GAGGGCGAAAGCCGACTC ((((((....)))..)))
A) 1.0

Q) For this sequence, is measured folding enthalpy -100 kJ/mol or higher? GCTCACGGAAACGTGGGC ((.((((....)))).))
A) 0.0

Q) folding enthalpy >= -100 kJ/mol for GAGCTAGGAAACTAACTC (((.(((....))).))) ?
A) 1.0

Q) Reported folding enthalpy reaches at least -100 kJ/mol for GCCACCGAAAGGTGAGGC ((((((....)))..))) ?
A) 1.0

Q) Test whether the sequence GATCTGCAACCAGATC ((((((....)))))) records folding enthalpy of -100 kJ/mol or higher.
A) 0.0

Q) Could you verify whether the entry GACCTAGGAAACTAGGTC (((((((....))))))) shows folding enthalpy of no less than -100 kJ/mol?
A) 0.0

Q) Threshold query (folding enthalpy >= -100 kJ/mol) on GCTGAACGAAAGTTAAGC (((.(((....))).)))
A) 0.0

Q) Identify whether the reported folding enthalpy of the following sequence is -100 kJ/mol or greater: GATCGGGCGACCGATC ((((((....))))))
A) 0.0

Q) Has GTTTAGCGAAAGCTAAC (((.(((....)))))) a recorded folding enthalpy greater than or equal to -100 kJ/mol?
A) 1.0
